Provenance of the data: the supplement of paper PMC7877785

- Assay Method Text: self-splicing fitness, log relative to wild type (ln ratio); higher = more splicing; Tetrahymena group I intron in knt gene, E. coli kanamycin selection, DiMSum; sequences stand for … in CUCUCU…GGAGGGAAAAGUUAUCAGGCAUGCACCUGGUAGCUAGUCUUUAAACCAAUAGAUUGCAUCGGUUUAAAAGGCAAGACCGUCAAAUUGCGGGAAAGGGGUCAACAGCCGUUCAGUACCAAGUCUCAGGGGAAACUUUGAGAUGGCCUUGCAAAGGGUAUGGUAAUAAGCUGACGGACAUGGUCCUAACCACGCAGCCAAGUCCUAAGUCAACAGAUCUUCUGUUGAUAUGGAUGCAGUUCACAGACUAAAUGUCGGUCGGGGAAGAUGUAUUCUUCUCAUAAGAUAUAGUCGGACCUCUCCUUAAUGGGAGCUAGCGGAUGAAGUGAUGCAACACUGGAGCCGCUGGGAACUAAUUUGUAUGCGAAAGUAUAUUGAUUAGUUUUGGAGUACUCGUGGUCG;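 note: selection with 25 µg/mL kanamycin versus none on LB agar overnight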
- Test Settings: 37 °C
Would you mind telling me the reported self-splicing fitness (ln) of each entry?
Answer using only a numeral; do not append any unit.

Please report the recorded self-splicing fitness (ln) for AAACAGCAAUAUUACGCCAC . -1.77

Reported self-splicing fitness (ln) for GACCAGCAAUAUUACGCGUA : what is it? -0.392

Would you kindly share the measured self-splicing fitness (ln) for UGUAAGCAAUAUUACGCGCG ? -0.329

Form field: reported self-splicing fitness (ln) of CACGAGCAAUAUUACGCAUU -1.95

self-splicing fitness (ln) lookup needed for GCCCAGCAAUAUUACGGAUC , thanks. -0.289

Any idea what self-splicing fitness (ln) was measured for AUUAAGCAAUAUUACGCACU ? -0.414

For the sequence shown here, GACAAGCAAUAUUACGAGGA , give the reported self-splicing fitness (ln). -2.42

Quick one: self-splicing fitness (ln) for AUCCAGCAAUAUUACGAAAA ? -1.02
